For each entry below, report its inhibition value.
- assay_system: UniProtKB P81908
- Sequence (P81908 whole entry): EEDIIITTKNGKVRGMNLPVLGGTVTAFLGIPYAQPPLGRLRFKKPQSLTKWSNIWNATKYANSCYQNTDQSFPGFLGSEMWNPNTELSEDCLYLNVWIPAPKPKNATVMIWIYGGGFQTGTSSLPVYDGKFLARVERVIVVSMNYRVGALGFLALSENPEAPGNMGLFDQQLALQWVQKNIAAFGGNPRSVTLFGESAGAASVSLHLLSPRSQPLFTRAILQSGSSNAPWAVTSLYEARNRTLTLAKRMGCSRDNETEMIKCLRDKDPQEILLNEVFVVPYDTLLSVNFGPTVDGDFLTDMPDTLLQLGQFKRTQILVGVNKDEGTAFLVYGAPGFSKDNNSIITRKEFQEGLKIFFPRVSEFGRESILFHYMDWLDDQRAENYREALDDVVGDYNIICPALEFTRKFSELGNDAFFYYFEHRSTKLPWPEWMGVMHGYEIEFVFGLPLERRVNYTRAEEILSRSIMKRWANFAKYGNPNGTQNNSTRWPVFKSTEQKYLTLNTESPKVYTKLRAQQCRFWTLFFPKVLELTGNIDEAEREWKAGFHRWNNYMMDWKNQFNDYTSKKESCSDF
- applied_conditions: at 2 mg/mL
- Description: Inhibition of horse BChE at 2 mg/ml by Ellman's method
Report the value in % with no unit label.

Challenge: # return recorded inhibition for entry C/C1=C/CCC(C)(O)/C=C\C(C(C)C)C(OC(=O)c2ccc(O)cc2)C1 (centres undefined)
Response given: -0.77

Challenge: # return recorded inhibition for entry Cc1nccc2c1[nH]c1ccccc12
Response given: 39.4

Challenge: # return recorded inhibition for entry CN(C)CCc1ccc(O)cc1
Response given: -2.06

Challenge: # return recorded inhibition for entry O=c1cc(-c2ccc(O)c(OC3O[C@H](CO)[C@@H](O)[C@H](O)[C@H]3O)c2)oc2cc(OC3O[C@H](CO)[C@@H](O)[C@H](O)[C@H]3O)cc(O)c12 (some centres undefined)
Response given: -2.06

Challenge: # return recorded inhibition for entry C=C1C(=O)[C@]23[C@H](CC[C@@H]1[C@@H]2O)[C@]12CO[C@@]3(O)[C@H](O)[C@H]1C(C)(C)CC[C@@H]2O
Response given: -8.92

Challenge: # return recorded inhibition for entry O[C@H]1CCN2Cc3ccccc3N=C12
Response given: 85.7

Challenge: # return recorded inhibition for entry COc1cc(/C=C/C(=O)O)ccc1O
Response given: -0.02

Challenge: # return recorded inhibition for entry COC1=C(N)C(=O)c2nc(-c3nc(C(=O)O)c(C)c(-c4ccc(OC)c(OC)c4O)c3N)ccc2C1=O
Response given: -5.44

Challenge: # return recorded inhibition for entry C[C@@H]1O[C@@H](O[C@@H]2[C@@H](O)[C@H](O)[C@@H](CO)O[C@H]2c2c(O)cc(O)c3c(=O)cc(-c4ccc(O)cc4)oc23)[C@H](O)[C@H](O)[C@H]1O
Response given: -3.3

Challenge: # return recorded inhibition for entry O=c1cc(-c2ccccc2)oc2cc(O)ccc12
Response given: -0.25

Challenge: # return recorded inhibition for entry CC(C)(C)[C@]1(O)CC2OC(=O)CC23C(=O)OC2OC(=O)[C@H](O)C231 (some centres undefined)
Response given: 10.9

Challenge: # return recorded inhibition for entry COc1ccc2cc1Oc1ccc(cc1)C[C@H]1c3cc(c(OC)cc3CCN1C)Oc1c(OC)c(OC)c(OC)c3c1[C@H](C2)N(C)CC3
Response given: -7.66

Challenge: # return recorded inhibition for entry c1ccc2c(Cc3c[nH]c4ccccc34)c[nH]c2c1
Response given: 21.7

Challenge: # return recorded inhibition for entry CC(=O)O[C@H]1C(=O)[C@@]2(C)[C@H]([C@H](OC(=O)c3ccccc3)[C@]3(O)C[C@H](OC(=O)[C@H](O)[C@@H](NC(=O)c4ccccc4)c4ccccc4)C(C)=C1C3(C)C)[C@]1(OC(C)=O)CO[C@@H]1C[C@@H]2O
Response given: -2.88

Challenge: # return recorded inhibition for entry O=C1C=C2C=C[C@@H]3C[C@@]2(O1)[C@H]1CCCCN31
Response given: 6.85

Challenge: # return recorded inhibition for entry C[C@@H]1O[C@@H](Oc2c(-c3ccc(O)c(O)c3)oc3cc(O)cc(O)c3c2=O)[C@H](O)[C@H](O)[C@H]1O
Response given: -6.56

Challenge: # return recorded inhibition for entry Oc1cc(O)c2c(c1)O[C@H](c1ccc(O)c(O)c1)[C@H](O)C2
Response given: 0.47

Challenge: # return recorded inhibition for entry C/C=C1\[C@H]2C=C(C)C[C@]1(N)c1ccc(=O)[nH]c1C2
Response given: 11.8

Challenge: # return recorded inhibition for entry C[C@@]12CCc3occc3[C@H]1CC[C@@]13C[C@@H](CC[C@H]12)[C@@](O)(CO)C3
Response given: 13.8
